STUDY_TARGET: ΔF508-CFTR (Homo sapiens, UniProt P13569, DEL508-508)
Sequence (P13569 with tags, fused parts or gaps DEL508-508): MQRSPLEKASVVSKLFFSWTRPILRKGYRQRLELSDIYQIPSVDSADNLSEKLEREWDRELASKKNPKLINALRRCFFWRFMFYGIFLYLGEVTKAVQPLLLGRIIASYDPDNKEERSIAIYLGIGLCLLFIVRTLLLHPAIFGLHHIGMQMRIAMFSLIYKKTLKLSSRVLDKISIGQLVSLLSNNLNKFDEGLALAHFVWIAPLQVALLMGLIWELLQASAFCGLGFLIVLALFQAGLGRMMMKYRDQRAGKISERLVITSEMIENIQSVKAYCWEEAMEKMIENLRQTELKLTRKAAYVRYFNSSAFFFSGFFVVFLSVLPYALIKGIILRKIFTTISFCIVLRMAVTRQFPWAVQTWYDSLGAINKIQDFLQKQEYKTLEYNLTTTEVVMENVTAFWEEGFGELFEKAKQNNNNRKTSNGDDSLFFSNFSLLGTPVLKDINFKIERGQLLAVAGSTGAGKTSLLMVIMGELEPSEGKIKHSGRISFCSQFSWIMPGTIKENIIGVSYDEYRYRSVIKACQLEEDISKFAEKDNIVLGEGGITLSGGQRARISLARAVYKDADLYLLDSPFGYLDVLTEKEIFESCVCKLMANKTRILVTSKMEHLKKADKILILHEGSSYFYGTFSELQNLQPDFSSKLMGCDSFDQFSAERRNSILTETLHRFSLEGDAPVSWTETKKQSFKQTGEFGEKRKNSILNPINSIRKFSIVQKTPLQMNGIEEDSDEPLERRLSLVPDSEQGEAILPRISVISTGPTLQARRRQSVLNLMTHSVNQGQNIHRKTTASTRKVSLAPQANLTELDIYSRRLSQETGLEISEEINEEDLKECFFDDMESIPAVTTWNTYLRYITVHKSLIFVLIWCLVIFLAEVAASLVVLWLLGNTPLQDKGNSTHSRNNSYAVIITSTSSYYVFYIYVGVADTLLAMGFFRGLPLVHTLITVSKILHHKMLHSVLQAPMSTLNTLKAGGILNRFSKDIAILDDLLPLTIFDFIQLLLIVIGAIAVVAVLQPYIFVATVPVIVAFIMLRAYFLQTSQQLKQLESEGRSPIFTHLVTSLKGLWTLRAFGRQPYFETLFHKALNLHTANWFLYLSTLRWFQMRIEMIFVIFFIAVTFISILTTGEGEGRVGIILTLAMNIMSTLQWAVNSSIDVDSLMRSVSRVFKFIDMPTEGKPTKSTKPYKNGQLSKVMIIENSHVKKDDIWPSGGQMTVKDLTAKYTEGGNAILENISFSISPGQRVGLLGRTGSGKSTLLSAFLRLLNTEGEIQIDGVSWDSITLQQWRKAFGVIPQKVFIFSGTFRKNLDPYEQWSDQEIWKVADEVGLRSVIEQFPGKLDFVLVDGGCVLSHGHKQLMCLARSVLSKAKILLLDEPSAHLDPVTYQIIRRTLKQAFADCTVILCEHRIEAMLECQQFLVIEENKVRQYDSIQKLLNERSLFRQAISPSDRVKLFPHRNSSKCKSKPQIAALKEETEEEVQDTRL
ASSAY_PROCEDURE: Membrane potential optical assay (FRET/VIPR), identification of correction compounds
pEC50: −log10 of the molar value.
MEASURED_ATTRIBUTE: pEC50

The cases that follow already have their pEC50 on record.
1) Cc1cccc(C(=O)N2CCN(C(C)c3nc4ccccc4c(=O)n3C)CC2)c1 (centres unmarked) ... 4.22 to 4.60
2) COc1ccc(S(=O)(=O)NC2CCN(C(C)c3nc4ccccc4c(=O)n3C)C2)cc1 (centres unmarked) ... 4.22 to 4.60
3) CC(c1nc2ccccc2c(=O)n1C)N1CCN(S(=O)(=O)c2ccc(-c3csnn3)s2)CC1 (centres unmarked) ... 4.60 to 5.00
4) CC(c1nc2ccccc2c(=O)n1C)N1CCC(NS(=O)(=O)c2ccc(Cl)cc2)CC1 (centres unmarked) ... > 5.00
5) CCOc1nc(C(C)N2CCN(S(=O)(=O)c3ccc(Br)cc3)CC2)nc2ccccc12 (centres unmarked) ... > 5.00
6) CC(c1nc2ccccc2c(=O)n1C)N1CCC(NS(=O)(=O)c2ccc(Cl)cc2)C1 (centres unmarked) ... 4.22 to 4.60

## Task What does the data say about its pEC50? Entry: CC(c1nc2ccccc2c(=O)n1C)N(CCNS(=O)(=O)c1ccc(Br)cc1)S(=O)(=O)c1ccc(Br)cc1 (centres unmarked)
## Result 4.22 to 4.60

## Task What does the data say about its pEC50? Entry: CC(c1nc2ccccc2c(=O)n1C)N1CCN(C(=O)c2ccc(C(F)(F)F)cc2)CC1 (centres unmarked)
## Result 4.22 to 4.60

---

STUDY_TARGET: ΔF508-CFTR (Homo sapiens, UniProt P13569, DEL508-508)
ASSAY_PROCEDURE: Membrane potential optical assay (FRET/VIPR), identification of correction compounds
MEASURED_ATTRIBUTE: EC50

The cases that follow already have their EC50 on record.
1) CC(c1nc2ccccc2c(=O)n1C)N1CCN(S(=O)(=O)c2ccc(OC(F)F)cc2)CC1 (stereo not shown) [compound 293] ... 25 to 60 µM
2) CCOC(=O)C1CCN(c2nc(C(C)N3CCN(S(=O)(=O)c4ccc(OC)cc4)CC3)nc3ccccc23)CC1 (stereo not shown) [compound 322] ... < 10 µM
3) CC(c1nc2cc(Cl)ccc2c(=O)n1C)N1CCN(S(=O)(=O)c2ccc(Cl)cc2)CC1 (stereo not shown) [compound 94] ... < 10 µM

## Task What does the data say about its EC50? Entry: CC(c1nc2ccc(N)cc2c(=O)n1C)N1CCN(S(=O)(=O)c2ccc(Br)cc2)CC1 (stereo not shown) [compound 146]
## Result < 10 µM

## Task What does the data say about its EC50? Entry: CNCCNC(C)c1nc2ccccc2c(=O)n1C (stereo not shown) [compound 182]
## Result 25 to 60 µM

## Task What does the data say about its EC50? Entry: Cc1ccc(S(=O)(=O)N2CCN(C(C)c3nc4ccccc4c(=O)[nH]3)CC2)cc1 (stereo not shown) [compound 129]
## Result 10 to 25 µM

## Task What does the data say about its EC50? Entry: COc1ccc(S(=O)(=O)N2CCN(C(C)c3nc(OC4CCC5CC4C5)c4ccccc4n3)CC2)cc1 (stereo not shown) [compound 400]
## Result < 10 µM

## Task What does the data say about its EC50? Entry: CC(c1nc2ccccc2c(=O)n1C)N1CCN(S(=O)(=O)c2ccc(Br)cc2)CC1 (stereo not shown) [compound 51]
## Result 10 to 25 µM

## Task What does the data say about its EC50? Entry: COc1ccc(S(=O)(=O)N2CCN(C(C)c3nc(N4CCCC4C)c4ccccc4n3)CC2)cc1 (stereo not shown) [compound 325]
## Result < 10 µM

## Task What does the data say about its EC50? Entry: CC(c1nc2ccccc2c(=O)n1C)N1CCN(S(=O)(=O)c2ccc3oc(=O)ccc3c2)CC1 (stereo not shown) [compound 252]
## Result 25 to 60 µM

## Task What does the data say about its EC50? Entry: COc1ccc(S(=O)(=O)N2CCN(Cc3nc(OC4CCCCC4)c4ccccc4n3)CC2)cc1 [compound 385]
## Result < 10 µM

## Task What does the data say about its EC50? Entry: CC(Nc1ccc(NS(=O)(=O)c2ccc(Cl)cc2)cc1)c1nc2ccccc2c(=O)n1C (stereo not shown) [compound 308]
## Result < 10 µM

## Task What does the data say about its EC50? Entry: COc1cccc(S(=O)(=O)N2CCN(C(C)c3nc4ccccc4c(=O)n3C)CC2)c1 (stereo not shown) [compound 249]
## Result 25 to 60 µM

## Task What does the data say about its EC50? Entry: CC(c1nc2ccc(Cl)cc2c(=O)n1C)N1CCN(C(=O)c2ccc(Cl)cc2)CC1 (stereo not shown) [compound 40]
## Result 10 to 25 µM

## Task What does the data say about its EC50? Entry: COc1ccc(S(=O)(=O)N2CCN(C(C)c3nc(N4CCC(CCO)CC4)c4ccccc4n3)CC2)cc1 (stereo not shown) [compound 363]
## Result 10 to 25 µM

## Task What does the data say about its EC50? Entry: COc1ccc(S(=O)(=O)N2CCN(C(C)c3nc(N(C)C)c4ccccc4n3)CC2)cc1 (stereo not shown) [compound 193]
## Result 25 to 60 µM

## Task What does the data say about its EC50? Entry: CC(c1nc2ccc(Cl)cc2c(=O)n1C)N1CCN(C(=O)c2ccc(C(F)(F)F)cc2)CC1 (stereo not shown) [compound 78]
## Result 10 to 25 µM

## Task What does the data say about its EC50? Entry: COc1ccc(S(=O)(=O)N2CCN(C(C)c3nc(N4CCSC4)c4ccccc4n3)CC2)cc1 (stereo not shown) [compound 393]
## Result 10 to 25 µM

## Task What does the data say about its EC50? Entry: CC(c1nc2ccccc2c(=O)n1C)N1CCN(S(=O)(=O)c2ccccc2C#N)CC1 (stereo not shown) [compound 259]
## Result 25 to 60 µM

## Task What does the data say about its EC50? Entry: CC(c1nc2ccccc2c(=O)n1C)N1CCN(S(=O)(=O)c2ccc(S(=O)(=O)c3ccccc3)s2)CC1 (stereo not shown) [compound 265]
## Result 25 to 60 µM

## Task What does the data say about its EC50? Entry: COc1ccc(S(=O)(=O)N2CCN(C(C)c3nc4ccc(C(N)=O)cc4c(=O)n3C)CC2)cc1 (stereo not shown) [compound 143]
## Result 25 to 60 µM

## Task What does the data say about its EC50? Entry: C=Cc1ccc(S(=O)(=O)N2CCN(C(C)c3nc4ccccc4c(=O)n3C)CC2)cc1 (stereo not shown) [compound 244]
## Result 25 to 60 µM
